Data provenance: patent US6903132B2

Form: system (human GnRH receptors (Homo sapiens)), quantity (Ki), values below.
Write it as a number; the unit nM goes unstated.

Before answering, review these 5 worked examples.
Compound	Target Or Test System	Ki, nM
Cc1cc2c(cc1Cc1ccc(C(=O)NNc3ccccn3)o1)C(C)(C)CCC2(C)C	human GnRH receptors (Homo sapiens)	350
Cc1cc2c(cc1Oc1ccc(C(=O)NNc3cc(C)c4c(C)nn(C)c4n3)o1)C(c1ccccc1)CCC2 (centres unmarked)	human GnRH receptors (Homo sapiens)	58
Cc1cc(C(F)(F)F)cc(NNC(=O)c2ccc(Cc3cc4c(cc3C)C(C)(C)CCC4(C)C)o2)n1	human GnRH receptors (Homo sapiens)	220
Cc1cc(Cl)c(C(C)C)c(Oc2ccc(C(=O)NNc3cc(C)c4c(C)nn(C)c4n3)o2)c1	human GnRH receptors (Homo sapiens)	5770
Cc1cc(C)cc(NNC(=O)c2ccc(Cc3cc4c(cc3C)C(C)(C)CCC4(C)C)o2)c1	human GnRH receptors (Homo sapiens)	310

Sample Cc1cc2c(cc1Cc1ccc(C(=O)NNc3ccc(C(F)(F)F)cn3)o1)C(C)(C)CCC2(C)C — what was its Ki?
61

Sample Cc1cc2c(cc1Oc1ccc(C(=O)NNc3cc(C)c4c(C)nn(C)c4n3)o1)C(C)(C)CCC2(C)C — what was its Ki?
3.3

Sample COc1c(Oc2ccc(C(=O)NNc3cc(C)c4c(C)nn(C)c4n3)o2)c(C)cc2c1C(C)(C)CCC2 — what was its Ki?
146

Sample Cc1cc(NNC(=O)c2ccc(Oc3cc4c(cc3Cl)N(C)CCC4(C)C)o2)nc2c1c(C)nn2C — what was its Ki?
101

Sample Cc1ccc(C(C)(C)C)cc1Cc1ccc(C(=O)NNc2ccc3ccccc3n2)o1 — what was its Ki?
95

====

Biological target: mouse GnRH receptors (Mus musculus, UniProt Q01776)
Assay Readout: pKi
Just the number, please; pKi means minus log10 of the concentration in mol/L.

Compound	Assay Readout	Reported Value
Cc1cc2c(cc1Oc1ccc(C(=O)NNc3cc(C)c4c(C)nn(C)c4n3)o1)C(C)(C)CCC2(C)C [Example F2]	pKi	8.09
Cc1cc2c(c(Br)c1Oc1ccc(C(=O)NNc3cc(C)c4c(C)nn(C)c4n3)o1)C(C)(C)CCC2 [Example I11]	pKi	6.60
Cc1cc(NNC(=O)c2ccc(Oc3cc(C(C)(C)C)ccc3Br)o2)nc2c1c(C)nn2C [Example I6]	pKi	7.21

Recall the recorded pKi for Cc1cc(NNC(=O)c2ccc(Oc3cc4c(cc3Cl)N(C)CCC4(C)C)o2)nc2c1c(C)nn2C [Example I27] with mouse GnRH receptors (Mus musculus, UniProt Q01776) and state it.
6.91

====

Form: system (UniProt:P30968), quantity (Ki), values below.
Your reply should be a number followed by the unit it is expressed in.

Recall the recorded Ki for Cc1cc2c(cc1Cc1ccc(C(=O)NNc3cc(C)c4c(C)nn(C)c4n3)o1)C(C)(C)OC2(C)C [Example E1] with UniProt:P30968 and state it.
4.2 nM

Recall the recorded Ki for COc1cc(Cc2ccc(C(=O)NNc3cc(C)c4c(C)nn(C)c4n3)o2)c(OC)c(OC)c1 with UniProt:P30968 and state it.
3890 nM

Recall the recorded Ki for Cc1cc2c(cc1Oc1ccc(C(=O)NNc3ccc4ccccc4n3)o1)C(C)(C)C(C)C2(C)C (stereo not shown) with UniProt:P30968 and state it.
4.1 nM

Recall the recorded Ki for COc1c(Cl)c(C)c(Cl)c(C)c1Cc1ccc(C(=O)NNc2cc(C)c3c(C)nn(C)c3n2)o1 with UniProt:P30968 and state it.
480 nM

====

Target: human GnRH receptors (Homo sapiens)
Sequence (P30968 1-328): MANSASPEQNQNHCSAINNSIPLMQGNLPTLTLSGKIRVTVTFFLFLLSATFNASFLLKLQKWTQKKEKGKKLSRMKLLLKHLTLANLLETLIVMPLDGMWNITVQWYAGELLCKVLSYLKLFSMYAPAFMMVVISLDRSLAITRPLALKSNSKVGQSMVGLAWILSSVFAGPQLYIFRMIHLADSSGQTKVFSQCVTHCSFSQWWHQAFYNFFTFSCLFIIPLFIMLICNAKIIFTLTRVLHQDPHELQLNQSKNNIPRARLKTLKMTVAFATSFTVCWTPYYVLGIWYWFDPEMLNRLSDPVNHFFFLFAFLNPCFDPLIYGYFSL
Assay Readout: pKi
Just the number, please; pKi means minus log10 of the concentration in mol/L.

Before answering, review these 3 worked examples.
Molecule	pKi
COc1ccc(OC)c(Cc2ccc(C(=O)NNc3cc(C)c4c(C)nn(C)c4n3)o2)c1 [Example J6]	4.79
Cc1cc2c(cc1Cc1ccc(C(=O)NNc3cc(C)c4c(C)nn(C)c4n3)o1)C(C)(C)CC2(C)C [Example J15]	9.05
Cc1cc(C)c(Cc2ccc(C(=O)NNc3cc(C)c4c(C)nn(C)c4n3)o2)c(C)c1 [Example J3]	6.40

Sample Cc1cc2c(cc1Oc1ccc(C(=O)NNc3cc(C)c4c(C)nn(C)c4n3)o1)C(C)(C)OC2 [Example N2] — what was its pKi?
7.55

Sample COc1cc2c(c(C)c1Oc1ccc(C(=O)NNc3cc(C)c4c(C)nn(C)c4n3)o1)C(C)(C)CCC2(C)C [Example I25] — what was its pKi?
7.51

Sample COc1ccc(C(C)(C)C)cc1Cc1ccc(C(=O)NNc2cc(C)c3c(C)nn(C)c3n2)o1 [Example J19] — what was its pKi?
6.85

Sample Cc1cc(NNC(=O)c2ccc(Oc3ccc4c(c3)C(C)(C)CCC4(C)C)o2)nc2c1c(C)nn2C [Example F4] — what was its pKi?
6.90

Sample Cc1cc(NNC(=O)c2ccc(Cc3cc4c(cc3C(C)C)C(C)(C)CCC4(C)C)o2)nc2c1c(C)nn2C [Example C3] — what was its pKi?
6.52

====

This listing pairs compounds with measured Tmax.
Assay: Pharmacokinetics in female rats
Assay type: in vivo, rat
Details: rat, plasma, po, dose and vehicle per footnote, read-out: FR Tmax hr
Write it as a number; the unit h goes unstated.

Before answering, review these 5 worked examples.
Compound	Endpoint Unit	Tmax
Cc1cc(C)c(Cc2ccc(C(=O)NNc3cc(C)c4c(C)nn(C)c4n3)o2)c(C)c1Br	h	0.5
Cc1cc2c(cc1Cc1ccc(C(=O)NNc3cc(C)c4c(C)nn(C)c4n3)o1)C(C)(C)CCC2(C)C	h	1
COc1cc2c(cc1Cc1ccc(C(=O)NNc3cc(C)c4c(C)nn(C)c4n3)o1)C(C)(C)CCC2(C)C	h	2
Cc1ccc(C(C)(C)C)cc1Cc1ccc(C(=O)NNc2cc(C)c3c(C)nn(C)c3n2)o1	h	0.5
Cc1cc2c(cc1Oc1ccc(C(=O)NNc3cc(C)c4c(C)nn(C)c4n3)o1)C(C)(C)CCC2(C)C	h	0.5

Sample COc1cc(C)c(Cl)c(C)c1Cc1ccc(C(=O)NNc2cc(C)c3c(C)nn(C)c3n2)o1 — what was its Tmax?
1

Sample Cc1cc2c(cc1Cc1ccc(C(=O)NNc3cc(C)c4c(C)nn(C)c4n3)o1)C(C)(C)OC2(C)C [Example E1] — what was its Tmax?
1

====

This listing pairs molecules with measured Ki.
Target: mouse GnRH receptors (Mus musculus, UniProt Q01776)
Sequence (Q01776 1-327): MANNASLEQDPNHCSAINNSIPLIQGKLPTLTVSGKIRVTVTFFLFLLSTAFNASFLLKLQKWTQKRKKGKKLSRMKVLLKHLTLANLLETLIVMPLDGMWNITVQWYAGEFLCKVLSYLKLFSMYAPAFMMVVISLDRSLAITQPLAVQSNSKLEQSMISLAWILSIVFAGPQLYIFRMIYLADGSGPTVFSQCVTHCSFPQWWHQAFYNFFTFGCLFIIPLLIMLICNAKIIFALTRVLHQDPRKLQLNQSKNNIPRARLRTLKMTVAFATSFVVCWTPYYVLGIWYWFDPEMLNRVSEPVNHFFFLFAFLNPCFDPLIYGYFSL
Write it as a number; the unit nM goes unstated.

Before answering, review these 2 worked examples.
Molecule	Target Or Test System	Reported Value
Cc1cc2c(cc1Cc1ccc(C(=O)NNc3cc(C)c4c(C)nn(C)c4n3)o1)C(C)(C)CCC2(C)C [Example C1]	mouse GnRH receptors (Mus musculus, UniProt Q01776)	7
Cc1cc2c(cc1Oc1ccc(C(=O)NNc3cc(C)c4c(C)nn(C)c4n3)o1)C(C)(C)CC2 [Example I7]	mouse GnRH receptors (Mus musculus, UniProt Q01776)	11

Please examine the following record next.
Sample Cc1cc2c(cc1Cc1ccc(C(=O)NNc3cc(C)c4c(C)nn(C)c4n3)o1)C(C)(C)OC2(C)C [Example E1] — what was its Ki?
12

====

This listing pairs molecules with measured pKi.
Target: human GnRH receptors (Homo sapiens, UniProt P30968)
Just the number, please; pKi means minus log10 of the concentration in mol/L.

Molecule	pKi
Cc1cc2c(cc1Oc1ccc(C(=O)NNc3cc(C)c4c(C)nn(C)c4n3)o1)C(C)(C)CCC2	8.38
Cc1cc2c(c(Br)c1Oc1ccc(C(=O)NNc3cc(C)c4c(C)nn(C)c4n3)o1)C(C)(C)CC2	8.00
Cc1ccc(C(C)(C)C)cc1Cc1ccc(C(=O)NNc2cc(C)c3c(C)nn(C)c3n2)o1	7.46

Recall the recorded pKi for CC(=O)N(C)c1ccc(C)c(Oc2ccc(C(=O)NNc3cc(C)c4c(C)nn(C)c4n3)o2)c1 with human GnRH receptors (Homo sapiens, UniProt P30968) and state it.
6.20

Recall the recorded pKi for CC(=O)c1c(NNC(=O)c2ccc(Cc3cc4c(cc3C)C(C)(C)OC4(C)C)o2)nc2c(c(C)nn2C)c1C [Example E2] with human GnRH receptors (Homo sapiens, UniProt P30968) and state it.
6.52

Recall the recorded pKi for COc1c(C(C)C)cc(Cl)c(C)c1Cc1ccc(C(=O)NNc2cc(C)c3c(C)nn(C)c3n2)o1 with human GnRH receptors (Homo sapiens, UniProt P30968) and state it.
6.89

Recall the recorded pKi for Cc1cc2c(cc1Cc1ccc(C(=O)NNc3c(Cl)cncc3Cl)o1)C(C)(C)CCC2(C)C with human GnRH receptors (Homo sapiens, UniProt P30968) and state it.
6.39
